Let's look at some molecules and their measured IC50.
biological target: IDO1 (Homo sapiens); assay: Cell-based IDO1 assay (Kyn production) in IFN-γ-treated HeLa cells; set-up: to induce endogenous IDO1 expression; endogenous in cells; host or cells: HeLa cells stimulated with IFN-γ; conditions: IFN-γ-treated (50 ng/mL, 24 h) HeLa cells, compound 6 h; mean ± SD; read-out: IC50 against cell-based IDO1 (Kyn production)
Sequence (P14902 whole entry): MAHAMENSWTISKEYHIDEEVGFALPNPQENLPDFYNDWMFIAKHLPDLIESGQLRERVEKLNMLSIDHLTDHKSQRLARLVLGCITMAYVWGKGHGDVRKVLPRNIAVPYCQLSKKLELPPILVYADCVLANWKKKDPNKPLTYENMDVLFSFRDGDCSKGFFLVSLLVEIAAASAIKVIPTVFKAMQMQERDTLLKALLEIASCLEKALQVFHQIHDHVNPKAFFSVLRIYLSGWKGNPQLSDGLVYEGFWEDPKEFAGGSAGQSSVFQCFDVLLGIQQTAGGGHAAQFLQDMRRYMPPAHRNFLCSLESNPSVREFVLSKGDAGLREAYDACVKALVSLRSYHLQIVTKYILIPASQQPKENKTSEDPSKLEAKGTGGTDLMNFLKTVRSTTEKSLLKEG

MOLECULE: CC(C)=CCc1c(O)cc(O)c2c1OC(c1ccc(O)cc1)CC2=O (stereo not drawn)
IC50, µM: 83.6
//
MOLECULE: CC(C)=CCc1c(O)cc(O)c2c(=O)c(O)c(-c3ccc(O)cc3)oc12 [Noranhydroicaritin (1), noranhydroicaritin]
IC50, µM: 42.2
//
MOLECULE: C=C(C)[C@H](CC=C(C)C)Cc1c(O)cc(OC)c2c1O[C@H](c1ccc(O)cc1O)CC2=O [(−)-Kurarinone (3), (−)-kurarinone]
IC50, µM: 74.9
//
MOLECULE: C=C(C)[C@H](CC=C(C)C)Cc1c(O)cc(OC)c2c1O[C@H](c1ccc(O)cc1OC)CC2=O
IC50, µM: 23.8
//
MOLECULE: CC(C)=CCc1c(O)c(CC=C(C)C)c2c(c1O)C(=O)C[C@@H](c1ccc(O)cc1O)O2
IC50, µM: 4.3
//
MOLECULE: C=C(C)[C@H](CC=C(C)C)Cc1c(O)cc(O)c2c1O[C@H](c1ccc(O)cc1O)CC2=O
IC50, µM: 28.3

====

molecular target: His-IDO1 (P314A) (Homo sapiens, UniProt P14902, P314A); construct: The full-length of IDO1 gene was amplified by PCR; His tag; assay: Surface plasmon resonance (SPR) assay, His-IDO1 (P314A); conditions: 25 °C, PBS 5% DMSO
Sequence (P14902 whole entry P314A): as the sequence (P14902 whole entry) above, with P314A counted along it
pKd: −log10 of the molar value.
OBSERVATION_TYPE: pKd

SUBSTANCE_SMILES: CC(C)=CCc1c(O)c(CC=C(C)C)c2c(c1O)C(=O)C[C@@H](c1ccc(O)cc1O)O2
TESTED_SYSTEM: His-IDO1 (P314A) (Homo sapiens, UniProt P14902, P314A)
EXPERIMENTAL_RESULT: 5.05

====

molecular target: His-IDO1 (P314A) (Homo sapiens, UniProt P14902, P314A); construct: The full-length of IDO1 gene was amplified by PCR; His tag; experiment: Mutagenesis assay: IDO1 enzyme assay with P314A mutant; settings: mutant form of His-IDO1 (P314A)
pIC50: −log10 of the molar value.

SUBSTANCE_SMILES: CC(C)=CCc1c(O)c(CC=C(C)C)c2c(c1O)C(=O)C[C@@H](c1ccc(O)cc1O)O2
pIC50: 4.53

====

Let's look at some compounds and their measured pKi.
Biological target: IDO1 (Homo sapiens)
Test: IDO1 enzyme kinetics assay (Lineweaver–Burk, Dixon plots)
Settings: L-Trp 0–50 µM, flavonoids 0–45 µM, read-out: κi
Procedure: The kinetics assay was performed by adding purified protein to the reaction mixture (200 µL) which contained a final concentration of potassium phosphate buffer (50 mM, pH 6.5), ascorbic acid (20 mM), catalase (10 mM), methylene blue (10 µM), and distilled water up to 200 µL. […] After incubation at 37 °C for 1 h, the dissociation constant (κi) of the three flavonoids were determined by measuring the activity at five concentrations of L-Trp (0 to 50 µM).
pKi: −log10 of the molar value.

SUBSTANCE_SMILES: C=C(C)[C@H](CC=C(C)C)Cc1c(O)cc(O)c2c1O[C@H](c1ccc(O)cc1O)CC2=O
pKi: 4.69

SUBSTANCE_SMILES: C=C(C)[C@H](CC=C(C)C)Cc1c(O)cc(OC)c2c1O[C@H](c1ccc(O)cc1OC)CC2=O
pKi: 4.86

SUBSTANCE_SMILES: CC(C)=CCc1c(O)c(CC=C(C)C)c2c(c1O)C(=O)C[C@@H](c1ccc(O)cc1O)O2
pKi: 5.02

====

molecular target: IDO1 (Homo sapiens); assay: IDO1 enzyme assay; type: biochemical; parameters: The full-length of IDO1 gene was amplified by PCR; His tag; made in house; host or cells: Escherichia coli T7 strain, vector pET28a; conditions: recombinant human IDO1, L-Trp 200 µM, 37 °C, 1 h; mean ± SD; read-out: His-hIDO1 IC50
OBSERVATION_TYPE: IC50 (µM)

COMPOUND: C=C(C)[C@H](CC=C(C)C)Cc1c(O)cc(O)c2c1O[C@H](c1ccc(O)cc1O)CC2=O
OBSERVATION_TYPE: IC50
UNIT_OF_MEASURE: µM
EXPERIMENTAL_RESULT: 25.4

COMPOUND: C=C(C)[C@H](CC=C(C)C)Cc1c(O)cc(OC)c2c1O[C@H](c1ccc(O)cc1OC)CC2=O
OBSERVATION_TYPE: IC50
UNIT_OF_MEASURE: µM
EXPERIMENTAL_RESULT: 31.4

COMPOUND: CC(C)=CCc1c(O)c(CC=C(C)C)c2c(c1O)C(=O)C[C@@H](c1ccc(O)cc1O)O2
OBSERVATION_TYPE: IC50
UNIT_OF_MEASURE: µM
EXPERIMENTAL_RESULT: 7.7

COMPOUND: CC(C)=CCc1c(O)cc(O)c2c(=O)c(O)c(-c3ccc(O)cc3)oc12 [Noranhydroicaritin (1), noranhydroicaritin]
OBSERVATION_TYPE: IC50
UNIT_OF_MEASURE: µM
EXPERIMENTAL_RESULT: 23.5

COMPOUND: CC(C)=CCc1c(O)cc(O)c2c1OC(c1ccc(O)cc1)CC2=O (stereo not drawn)
OBSERVATION_TYPE: IC50
UNIT_OF_MEASURE: µM
EXPERIMENTAL_RESULT: 19.3

COMPOUND: C=C(C)[C@H](CC=C(C)C)Cc1c(O)cc(OC)c2c1O[C@H](c1ccc(O)cc1O)CC2=O [(−)-Kurarinone (3), (−)-kurarinone]
OBSERVATION_TYPE: IC50
UNIT_OF_MEASURE: µM
EXPERIMENTAL_RESULT: 23.4
